The measured values listed here are drawn from patent US20030096394A1.

# Method summary: Appearance of potential mediator in water
# Format: physicochemical
# Cond: Table 1 (pH 5.5 series)
Readout kind: Appearance in water

As a guide, the following entries are already answered.
INSERT INTO results (molecule, result) VALUES
  ('O=C(O)C=Cc1ccccc1Cl', 'cloudy'),
  ('C(=NCc1ccccc1)c1ccccc1', 'clear'),
  ('O=C1Nc2ccccc2C1=O', 'clear'),
  ('O=C(O)c1ccccc1O', 'clear'),
  ('O=C(O)C=Cc1cccc(O)c1 [3-Hydroxycinnamic acid]', 'clear');

Now for another entry.
q: What value of Appearance in water has been reported for the following molecule? "O=C(O)C=Cc1ccc(Cl)cc1"
a: cloudy

----------
# Method summary: Appearance of potential mediator in water
# Format: physicochemical
# Cond: Table 1 (pH 5.5 series)
Readout kind: Appearance in water

INSERT INTO results (molecule, result) VALUES
  ('O=C(O)C=Cc1ccccc1O [2-Hydroxycinnamic acid]', 'clear'),
  ('CCOC(=O)c1ccccc1O [Ethyl Salicylate]', 'cloudy'),
  ('COc1cc(C=CC(=O)O)cc(OC)c1OC', 'cloudy'),
  ('Nc1nc(N)nc(N)n1', 'cloudy'),
  ('COc1cccc(C=CC(=O)O)c1', 'clear'),
  ('Nc1ccc(C=CC(=O)O)cc1', 'clear'),
  ('COc1ccc(C=CC(=O)O)cc1O [3-Hydroxy-4-methoxycinnamic acid]', 'clear'),
  ('COc1ccc(C=CC(=O)O)cc1', 'cloudy');

q: What value of Appearance in water has been reported for the following molecule? "O=C(O)C=Cc1ccc([N+](=O)[O-])cc1"
a: cloudy

q: Field entry: COc1cc(C=CC(=O)O)cc(OC)c1O [3,5-Dimethoxy-4-hydroxycinnamic acid]
a: clear

q: Field entry: O=C(O)C=Cc1ccc(O)cc1 [4-Hydroxycinnamic acid]
a: clear

q: Field entry: "COc1ccc(C=CC(=O)O)cc1OC"
a: clear

q: Field entry: "O=C(O)C=Cc1ccccc1"
a: clear

q: Field entry: "O=C(O)C=Cc1cccc(Cl)c1"
a: cloudy

q: Field entry: "COc1ccc(CO)cc1OC"
a: clear
